- System: MS2 coat protein
- runDescription: apparent Kd, MS2 coat protein; higher = weaker binding; RNA-MaP array; theophylline 2 mM where present
- cond: designed as: ON switch for theophylline; no ligand
outcomeMeasure: apparent Kd (nM)
Your answer should be a plain number; it is taken to be in nM.

What value of apparent Kd has been recorded for this entry: CGACUACAGCGUGAUACCAGUGACAGAUACCAGUCUAGACAUGAGGAUCACCCAUGUACGCGCCCUUGGCAGCACACUAGAUCGA
89.4

Please give the result for ACUUUGUCGGGUGAUACCAGCCUCGGCACAUCUCGUGCCGAACAUGAGGAUCACCCAUGUGGCCCUUGGCAGCACAUGACAAAUC too.
341

Please give the result for UGUAACAUGAGGAUCACCCAUGUAAGUGAUACCAGAUAAGUAGUAGUCCCUUGGCAGCAUAUUGGGCAAGUGUAUAGUCUAUACG too.
49.8

Please give the result for UGUAUGUGAUUUGAUACCAGAUCAGCUGGUUAUACAUGAGGAUCACCCAUGUUACUUUGGGUCCCUUGGCAGCAAAUCGCAUACU too.
487

Please give the result for UACAGUACAACAGAUACCAGACAGUACUCUAGAUUGCAACAUGAGGAUCACCCAUGUAUAGUCCCUUGGCAGCUGUAAUGGGUGA too.
180

Please give the result for AUCGUACCUGAGGAUACCAGCAUGUGAUCAUAACAUGAGGAUCACCCAUGUAAUCAGUGAUGCCCUUGGCAGCUUAGUCGAUACA too.
75.5

Please give the result for CAGAACAUGAGGAUCACCCAUGUCAGGGAUACCAGCUCAGACAUGGGCCCUUGGCAGCUCUGUGGCUGACGAAAGUCAGCAUCUG too.
60.8

Please give the result for UGUAUGUGAUCUGAUACCAGUCCCUUGGCAGCAACAUGAGGAUCACCCAUGUAGAUACCAGACCCUUGGCAGCAGAUCGCAUACU too.
9.06

Please give the result for CCUCAUGUGGUGCUGCACAUGAGAGGUGAUACCAGCAUCGAAAGAUGCCCUUGGCAGCACCAACAUGAGGAUCACCCAUGUAAUA too.
57.4

Please give the result for AUAAGUACGUCAGAUACCAGACAGCCAGACUUACAUGAGGAUCACCCAUGUGGAUGGACGGUCCCUUGGCAGCUGGCCGCAAAAG too.
213

Please give the result for GACAUGAGGAUAGAUACCAGCGACAUGAGGAUCACAUGAGGAUCACCCAUGUGUAGUAUACGCCCUUGGCAGCUAACAUGAGGAU too.
108

Please give the result for UCGUGAGUUUCGGAUACCAGUGUUGUCGAUACAUGAGGAUCACCCAUGUUAGAGGAUGUACACCCUUGGCAGCCGGCUGUGGCGG too.
18.6

Please give the result for UUAAAUGUGACGGAUACCAGCGUGUUGUAGAACAUGAGGAUCACCCAUGUAGUGAUCAUGCGCCCUUGGCAGCUGGUAUGUUUGA too.
379

###

- Tested on: MS2 coat protein
- runDescription: apparent Kd, MS2 coat protein; higher = weaker binding; RNA-MaP array; FMN 200 µM where present
- cond: designed as: ON switch for flavin mononucleotide; no ligand
# binning rule on apparent Kd: band A = under 0.07 µM, band B = from 0.07 µM up to 0.2 µM, band C = 0.2 µM and over

Which bin, given its apparent Kd, does AAUAAACACACAGGAUAUAGCAUCGUCGGUAUGAACUUAAAGACGACGAUGCUAGAAGGGUGAACACAUGAGGAUCACCCAUGU occupy?
band C

Please give the result for GCGCAAGCAUGAGGAUAUGUAUUAAAUAAUAAUACAGAAGGCAUGUCAAAUGACAUGAGGAUCACCCAUGUUGGCAAACUGCGC too.
band A

Please give the result for GUAGCAUACCGAGGAUAUUCAUAUAAUAAAUAAACAUGAGGAUCACCCAUGUGGCGAAAGCCUUGGGAGAAGGCGGAAUGCUAC too.
band C

Please give the result for ACAUGAGGAUCACCCAUGUGUGCAUAGGAUAUUGAGGAUUUGGGAUGUUUUUUUGGAUUUGCCCACAAGAAGGAUGAAAGUGUU too.
band A

Please give the result for CCCGUCAUCGAGAAGGCCUCAACAUGAGGAUCACCCAUGUUGUAAUAUGGGAGGAUAUCGAUGAUACAGCUACGUUUCGUAGGG too.
band A

Please give the result for UUGGUUGUCGUAGGAUAUGUAGGAUAUUCCUACAUGAGGAUCACCCAUGUUAGCAUGGAAGAAGGACAGAAGGACGAUGACCAU too.
band C

Please give the result for GUAGCUAUCGGAGGAUAUUCAUACCGGAAACGGACAUGAGGAUCACCCAUGUGGCGAAAGCCUUGGGAGAAGGCAGAUAGCUAC too.
band C

Please give the result for UCAACCGGCGCCGGUUGAACAUGAGGAUCACCCAUGUACUCCAGAAGGCCGCCCAAGAACGGAGUGGAGGAUAUGGAAGUUCUC too.
band A

Please give the result for GCGAUUGCGUAGAAGGUACAAUAUAUUUCAUUGUAAGGAUAUACUUACAUGAGGAUCACCCAUGUUAAUGGAAUUUGCAAUCGC too.
band B

Please give the result for UCAUUUAUUACAGGAUAUGUUAGUAUACAGUUGUUUGGUUAUUACAUAUUAACAGAAGGGUAGAACAUGAGGAUCACCCAUGUA too.
band B

Please give the result for GGAGACCUCACAGGAUAUGCUGGACUUUGUCCAGCAGAAGGGUGAACAUGAGGAUCACCCAUGUGGUCUUCCAAAAUAUUUAAU too.
band C

Please give the result for AAACACGGACAUGAGGAUCACCCAUGUGGCGAAAGCCUAGGGAGAAGGCAGUAUGCAAAGCAUUCUGAGGAUAUUCAUACCGUG too.
band B

Please give the result for GGUACCAUCACAGGAUAUGCUUUCCUUUGGGAAGCAGAAGGGUGUAACAUGAGGAUCACCCAUGUGGUGCCAGGGCGUGAGCCU too.
band C

Please give the result for GACAUACAUGAGGAUCACCCAUGUACAAACGUACAAGGAUAUGUGUGGAAACCGUACUAUACAGAAGGUGUUUGUC too.
band A

Please give the result for GCCAUCGCAUGAGGAUAUGCUCCCGUUUCGGGAGCAGAAGGCAUGUCAUAAGACAUGAGGAUCACCCAUGUAGAUAAGAUGGCA too.
band C

Please give the result for CGACAGUACACAGGAUAUCCUCGACUUUGUCGAGGAGAAGGGUGUAAACAUGAGGAUCACCCAUGUAUACUGUCGAAAUAUAAU too.
band C

Please give the result for UUUAUGGGACAGAAGGGCAAUUUCUUUAAUUAUUAUUUAAAACAUCAUUGCAGGAUAUGUAUAACAUGAGGAUCACCCAUGUAC too.
band A
